# light-induced TopBP1 condensate (z-score) annotations
# Test system: optoTopBP1 Flp-In 293 T-REx (HEK293) cells
# testDescription: light-induced TopBP1 condensate (nuclear foci) count, plate-normalised robust z-score vs non-control wells; higher = more TopBP1 condensates (negative = condensation inhibitor), active = hit call of the paper
# conditionDescription: 10 µM; incubation time 2 h
Structures can show the parent of a compound that is named as a salt. In all, about 1,500 compounds went through this assay and about 30 (2%) showed activity. This excerpt belongs to a sample that is enriched for actives.
quantityKind: light-induced TopBP1 condensate (z-score)

compound: CC(=O)NC1CCSC1=O (racemic) [N-Acetyl-DL-homocysteine Thiolactone]
readoutValue: -0.247
//
compound: C[C@]12CC[C@@H](O)C[C@@H]1CC[C@@H]1[C@@H]2CC[C@]2(C)C(=O)CC[C@@H]12 [Androsterone]
readoutValue: 0.981
//
compound: CC(CCc1ccccc1)NC(C)C(O)c1ccc(O)cc1 (stereo not given) [Nylidrin]
readoutValue: 0.555
//
compound: C#C[C@]1(O)CC[C@H]2[C@@H]3CCC4=CC(=O)CCC4=C3C=C[C@@]21CC [Gestrinone]
readoutValue: 0.545
//
compound: CC(=O)O[C@H]1C[C@H](O[C@H]2[C@@H](O)C[C@H](O[C@H]3[C@@H](O)C[C@H](O[C@H]4CC[C@@]5(C)[C@H](CC[C@@H]6[C@@H]5C[C@@H](O)[C@]5(C)[C@@H](C7=CC(=O)OC7)CC[C@]65O)C4)O[C@@H]3C)O[C@@H]2C)O[C@H](C)[C@H]1O[C@@H]1O[C@H](CO)[C@@H](O)[C@H](O)[C@H]1O [Lanatoside C]
readoutValue: -1.56
//
compound: COc1ccc(CCN)cc1OC [Homoveratrylamine]
readoutValue: -1.31
//
compound: CC(=O)O[C@H]1CC[C@@]2(C)C(=CC[C@@H]3[C@@H]2CC[C@]2(C)C(=O)CC[C@@H]32)C1 [Dehydroisoandosterone 3-acetate]
readoutValue: -0.674
//
compound: C[CH2][Hg][S]c1ccccc1C(=O)[O-].[Na+] [Thimerosal]
readoutValue: -8.21
//
compound: C[C@]12CCC(=O)C=C1C=C[C@@H]1[C@@H]2CC[C@@]2(C)[C@H]1CC[C@@]2(O)CCC(=O)O [Canrenoic acid potassium salt]
readoutValue: 1.33
//
compound: C[C@]12CC[C@H](O)C[C@@H]1CC[C@@H]1[C@@H]2CC[C@]2(C)C(=O)CC[C@@H]12 [Epiandrosterone]
readoutValue: -0.588
//
compound: COc1cc([C@@H]2c3cc4c(cc3[C@H](O)[C@H]3COC(=O)[C@H]23)OCO4)cc(OC)c1OC [Podophyllotoxin]
readoutValue: -2.43
//
compound: C[C@]12CC[C@@H](O)C[C@H]1CC[C@@H]1[C@@H]2CC[C@]2(C)C(=O)CC[C@@H]12 [3-alpha-Hydroxy-5-beta-androstan-17-one]
readoutValue: -0.529
//
compound: C[C@]12CC[C@H](O)C[C@H]1CC[C@@H]1[C@@H]2C[C@@H](O)[C@]2(C)[C@@H](C3=CC(=O)OC3)CC[C@]12O [Digoxigenin]
readoutValue: -2.51
//
compound: C[C@]12CC[C@H](O)C[C@H]1CC[C@@H]1[C@@H]2CC[C@]2(C)[C@@H](C3=CC(=O)OC3)CC[C@]12O [Digitoxigenin]
readoutValue: -2.06
//
compound: CO[C@]12C[C@@H](COC(=O)c3cncc(Br)c3)CN(C)[C@@H]1Cc1cn(C)c3cccc2c13 [Nicergoline]
readoutValue: -0.703
